tested on: S. aureus; assay: MIC assay, S. aureus; format: cell-based
Outcome Measure: MIC (μg/mL) S. aureus (µg/mL)
Quick note: give the figure in µg/mL, leave out the unit.

CCOC(=O)N1CCC[C@@H]2CN(c3cc(O)c4nc5c6c7c8c(C)c(O)c6c(=O)c(c-5oc4c3)NC(=O)/C(C)=C\C=C\[C@H](C)[C@H](O)[C@@H](C)[C@@H](O)[C@@H](C)[C@H](OC(C)=O)[C@H](C)[C@@H](OC)/C=C/O[C@@](C)(O8)C7=O)C[C@@H]21 [Compound 40] :: 0.06

Asked: Reported MIC (μg/mL) S. aureus for S. aureus, given COC1C=COC2(C)Oc3c(C)c(O)c4c(=O)c(c5oc6cc(N7CCC(NS(C)(=O)=O)CC7)cc(O)c6nc-5c4c3C2=O)NC(=O)C(C)=CC=CC(C)C(O)C(C)C(O)C(C)C(O)C1C (stereo not shown) [Compound 27] ?
Given back: 0.015

Asked: Reported MIC (μg/mL) S. aureus for S. aureus, given CO[C@H]1/C=C/O[C@@]2(C)Oc3c(C)c(O)c4c(=O)c(c5oc6cc(N7CCC(C)(NC(C)=O)CC7)cc(O)c6nc-5c4c3C2=O)NC(=O)/C(C)=C\C=C\[C@H](C)[C@H](O)[C@@H](C)[C@@H](O)[C@@H](C)[C@H](OC(C)=O)[C@@H]1C [Compound 72] ?
Given back: 0.008

Asked: Reported MIC (μg/mL) S. aureus for S. aureus, given CO[C@H]1/C=C/O[C@@]2(C)Oc3c(C)c(O)c4c(=O)c(c5oc6cc(N7C[C@H]8CCCN(C(C)=O)[C@H]8C7)cc(O)c6nc-5c4c3C2=O)NC(=O)/C(C)=C\C=C\[C@H](C)[C@H](O)[C@@H](C)[C@@H](O)[C@@H](C)[C@H](OC(C)=O)[C@@H]1C [Compound 47] ?
Given back: 0.008

----------
tested on: E. coli; assay: MIC assay, E. coli; type: cell-based
Outcome Measure: MIC (μg/mL) E. coli (µg/mL)
Quick note: give the figure in µg/mL, leave out the unit.

Observe how each entry below is paired with its result.
CCOC(=O)NC1CCN(c2ccc3nc4c5c6c7c(C)c(O)c5c(=O)c(c-4n(C)c3c2)NC(=O)/C(C)=C\C=C\[C@H](C)[C@H](O)[C@@H](C)[C@@H](O)[C@@H](C)[C@H](O)[C@H](C)[C@@H](OC)/C=C/O[C@@](C)(O7)C6=O)CC1 :: 8
CO[C@H]1/C=C/O[C@@]2(C)Oc3c(C)c(O)c4c(=O)c(c5oc6cc(N7CCC(C)(N(C)C)CC7)cc(O)c6nc-5c4c3C2=O)NC(=O)/C(C)=C\C=C\[C@H](C)[C@H](O)[C@@H](C)[C@@H](O)[C@@H](C)[C@H](O)[C@@H]1C :: 2
CO[C@H]1/C=C/O[C@@]2(C)Oc3c(C)c(O)c4c(=O)c(c5sc6cc(N7C[C@@H](C)N[C@@H](C)C7)ccc6nc-5c4c3C2=O)NC(=O)/C(C)=C\C=C\[C@H](C)[C@H](O)[C@@H](C)[C@@H](O)[C@@H](C)[C@H](OC(C)=O)[C@@H]1C :: 4

Asked: Endpoint output: MIC (μg/mL) E. coli of `CO[C@H]1/C=C/O[C@@]2(C)Oc3c(C)c(O)c4c(=O)c(c5oc6cc(N7CCC(NC(=O)OCC(C)C)CC7)cc(O)c6nc-5c4c3C2=O)NC(=O)/C(C)=C\C=C\[C@H](C)[C@H](O)[C@@H](C)[C@@H](O)[C@@H](C)[C@H](OC(C)=O)[C@@H]1C` . Value?
Given back: 4

Asked: Endpoint output: MIC (μg/mL) E. coli of `CO[C@H]1/C=C/O[C@@]2(C)Oc3c(C)c(O)c4c(=O)c(c5oc6cc(N7CC8CCC(C7)N8)cc(O)c6nc-5c4c3C2=O)NC(=O)/C(C)=C\C=C\[C@H](C)[C@H](O)[C@@H](C)[C@@H](O)[C@@H](C)[C@H](O)[C@@H]1C` . Value?
Given back: 4

Asked: Endpoint output: MIC (μg/mL) E. coli of `CCOC(=O)NCC1CCN(c2cc(O)c3nc4c5c6c7c(C)c(O)c5c(=O)c(c-4oc3c2)NC(=O)/C(C)=C\C=C\[C@H](C)[C@H](O)[C@@H](C)[C@@H](O)[C@@H](C)[C@H](OC(C)=O)[C@H](C)[C@@H](OC)/C=C/O[C@@](C)(O7)C6=O)CC1` . Value?
Given back: 8

Asked: Endpoint output: MIC (μg/mL) E. coli of `CO[C@H]1/C=C/O[C@@]2(C)Oc3c(C)c(O)c4c(=O)c(c5oc6cc(N7CCC(N8CCOCC8)CC7)cc(O)c6nc-5c4c3C2=O)NC(=O)/C(C)=C\C=C\[C@H](C)[C@H](O)[C@@H](C)[C@@H](O)[C@@H](C)[C@H](OC(C)=O)[C@@H]1C` . Value?
Given back: 8

----------
A collection of molecules and their measured MIC (μg/mL) E. coli
test system: E. coli; experiment: MIC assay, E. coli; format: cell-based
Quick note: give the figure in µg/mL, leave out the unit.

COC1C=COC2(C)Oc3c(C)c(O)c4c(=O)c(c5oc6cc(N7CCC(CNC(C)=O)CC7)cc(O)c6nc-5c4c3C2=O)NC(=O)C(C)=CC=CC(C)C(O)C(C)C(O)C(C)C(O)C1C (stereo not shown) [Compound 56] :: 8

Asked: Reported MIC (μg/mL) E. coli for E. coli, given CO[C@H]1/C=C/O[C@@]2(C)Oc3c(C)c(O)c4c(=O)c(c5oc6cc(N7C[C@@H]8CCCN(C)[C@@H]8C7)cc(O)c6nc-5c4c3C2=O)NC(=O)/C(C)=C\C=C\[C@H](C)[C@H](O)[C@@H](C)[C@@H](O)[C@@H](C)[C@H](O)[C@@H]1C [Compound 59] ?
Given back: 4

----------
A collection of compounds and their measured MIC (μg/mL) S. aureus
system: S. aureus; test: MIC assay, S. aureus; type: cell-based
Lab note: write values as number then unit, every time.

Observe how each entry below is paired with its result.
CCOC(=O)NCC1CCN(c2cc(O)c3nc4c5c6c7c(C)c(O)c5c(=O)c(c-4oc3c2)NC(=O)/C(C)=C\C=C\[C@H](C)[C@H](O)[C@@H](C)[C@@H](O)[C@@H](C)[C@H](OC(C)=O)[C@H](C)[C@@H](OC)/C=C/O[C@@](C)(O7)C6=O)CC1 [Compound 51] :: 0.06 µg/mL
CO[C@H]1/C=C/O[C@@]2(C)Oc3c(C)c(O)c4c(=O)c(c5oc6cc(N7CCC(CCO)CC7)cc(O)c6nc-5c4c3C2=O)NC(=O)/C(C)=C\C=C\[C@H](C)[C@H](O)[C@@H](C)[C@@H](O)[C@@H](C)[C@H](OC(C)=O)[C@@H]1C [Compound 61] :: 0.004 µg/mL
CO[C@H]1/C=C/O[C@@]2(C)Oc3c(C)c(O)c4c(=O)c(c5oc6cc(N7CCC(C)(N(C)C)CC7)cc(O)c6nc-5c4c3C2=O)NC(=O)/C(C)=C\C=C\[C@H](C)[C@H](O)[C@@H](C)[C@@H](O)[C@@H](C)[C@H](O)[C@@H]1C [Compound 73] :: 0.002 µg/mL
CO[C@H]1/C=C/O[C@@]2(C)Oc3c(C)c(O)c4c(=O)c(c5oc6cc(N7C[C@@H]8CCCN(C)[C@@H]8C7)cc(O)c6nc-5c4c3C2=O)NC(=O)/C(C)=C\C=C\[C@H](C)[C@H](O)[C@@H](C)[C@@H](O)[C@@H](C)[C@H](O)[C@@H]1C [Compound 59] :: 0.004 µg/mL

Asked: Endpoint output: MIC (μg/mL) S. aureus of CO[C@H]1/C=C/O[C@@]2(C)Oc3c(C)c(O)c4c(=O)c(c5oc6cc(N7CCC(CNC(C)=O)CC7)cc(O)c6nc-5c4c3C2=O)NC(=O)/C(C)=C\C=C\[C@H](C)[C@H](O)[C@@H](C)[C@@H](O)[C@@H](C)[C@H](OC(C)=O)[C@@H]1C [Compound 55] . Value?
Given back: 0.008 µg/mL

----------
test system: E. coli; test: MIC assay, E. coli; type: cell-based
Outcome Measure: MIC (μg/mL) E. coli

CO[C@H]1/C=C/O[C@@]2(C)Oc3c(C)c(O)c4c(=O)c(c5sc6cc(N7CCC(N(C)C)CC7)ccc6nc-5c4c3C2=O)NC(=O)/C(C)=C\C=C\[C@H](C)[C@H](O)[C@@H](C)[C@@H](O)[C@@H](C)[C@H](OC(C)=O)[C@@H]1C [Compound 69] :: 4 µg/mL
CCOC(=O)NCC1CCN(c2cc(O)c3nc4c5c6c7c(C)c(O)c5c(=O)c(c-4oc3c2)NC(=O)C(C)=CC=CC(C)C(O)C(C)C(O)C(C)C(O)C(C)C(OC)C=COC(C)(O7)C6=O)CC1 (stereo not shown) [Compound 60] :: >8 µg/mL
CO[C@H]1/C=C/O[C@@]2(C)Oc3c(C)c(O)c4c(=O)c(c5oc6cc(N7CCC(NS(C)(=O)=O)CC7)cc(O)c6nc-5c4c3C2=O)NC(=O)/C(C)=C\C=C\[C@H](C)[C@H](O)[C@@H](C)[C@@H](O)[C@@H](C)[C@H](OC(C)=O)[C@@H]1C [Compound 25] :: >8 µg/mL

Please examine the following record next.
Asked: Endpoint output: MIC (μg/mL) E. coli of CO[C@H]1/C=C/O[C@@]2(C)Oc3c(C)c(O)c4c(=O)c(c5oc6cc(N7CC[C@@H](N(C)C)C7)cc(O)c6nc-5c4c3C2=O)NC(=O)/C(C)=C\C=C\[C@H](C)[C@H](O)[C@@H](C)[C@@H](O)[C@@H](C)[C@H](OC(C)=O)[C@@H]1C [Compound 75] . Value?
Given back: 4 µg/mL
